# assay target: T1, human CD79b recombinant protein (human, UniProt P40259 29-159)
# T1 construct: also called human CD79b ECD antigen; recombinant human CD79b ECD
# T1 sequence: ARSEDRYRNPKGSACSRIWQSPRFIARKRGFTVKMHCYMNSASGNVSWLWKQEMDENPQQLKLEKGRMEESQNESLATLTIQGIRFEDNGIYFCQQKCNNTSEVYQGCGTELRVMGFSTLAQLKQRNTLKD
# test description: BLI; antibody at 10 ug/ml captured on anti-human IgG Fc probes, hCD79b in solution; same value printed in the rows for 18.3 and 9.14 nM hCD79b
test readout: koff (s⁻¹)
Give the quantity in s⁻¹, number only.

q: Need koff, item ch23D8 (antibody, human IgG1, kappa, V domains shown, Rabbit/human chimeric IgG1 kappa; also called chimeric 23D8) VH: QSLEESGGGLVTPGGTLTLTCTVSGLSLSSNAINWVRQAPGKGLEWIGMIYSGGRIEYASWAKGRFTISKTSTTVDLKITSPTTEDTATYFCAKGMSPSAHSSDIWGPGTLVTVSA VL: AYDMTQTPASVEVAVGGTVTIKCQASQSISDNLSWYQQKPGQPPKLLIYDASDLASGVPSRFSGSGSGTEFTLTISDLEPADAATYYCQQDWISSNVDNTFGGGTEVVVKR
a: 7.85e-05
